Test system: pCHK1-S345 in HT29 cells
Test Protocol: AlphaLISA SureFire Ultra p-CHK1 (Ser345) assay in HT29 cells
Type: cell-based
Measurement Conditions: Homo sapiens, HT-29, 16 h, read-out: CHK1 cellular potency AlphaLisa (IC50)
Observed Property: pIC50
Lab note — pIC50 values are minus log10 of concentrations in M.

query: Please look at N#Cc1cnc(Nc2cc(NC[C@H]3CNCCO3)c(C(F)(F)F)cn2)cn1 and tell me its recorded pIC50 on pCHK1-S345 in HT29 cells.
result: 5.82

---

Tested on: COLO320DM cells
Test Protocol: Cell viability / CTG proliferation (CellTiter-Glo)
Assay type: cell-based, human
Measurement Conditions: Homo sapiens, COLO 320DM; Extended Data Fig. 8; read-out: IC50 COLO320DM
Observed Property: pIC50
A value of pIC50 is the negative decimal logarithm of a concentration given in moles per litre.

{"columns": ["Smi", "Observed Measurement"],
 "data": [
  ["N#Cc1cnc(Nc2cc(NC[C@H]3CNCCO3)c(C(F)(F)F)cn2)cn1", 5.96],
  ["COc1cccc(OCCCN)c1-c1cc(Nc2cnc(C#N)cn2)n[nH]1", 7.47]
]}

--- query ---
query: Tell me pIC50 of COc1cc2nc(-c3cc(F)ccc3O)nc(N[C@@H]3CNC[C@H]3C(C)(C)O)c2cc1OC when tested on COLO320DM cells.
result: 5.43
